Cited source for all entries: patent US20260103465A1

System: MDR1-MDCK cell monolayers
TEST_SUMMARY: MDR1/MDCK permeability assay
Assay type: in vitro ADME
CONDITION_NOTES: A to B; Table 4
OUTCOME_MEASURE: MDCK Permeability (MDR1-MDCK); Mean; Papp(A-B) (10^−6 cm/s)

| MOLECULE | VALUE_MEASURED |
| --- | --- |
| CCC1(c2cccc(-c3cncn3C(C)C)c2)C2=C(CC(C)(C)CC2=O)Nc2ncc(F)cc21 (single isomer, unassigned) [Compound 1038A] | 0.90 10^−6 cm/s |
| CCC1(c2cccc(-c3c(F)cncc3OC)c2)C2=C(CC(C)(C)CC2=O)Nc2ncc(F)cc21 (single isomer, unassigned) [Compound 161B] | 5.2 10^−6 cm/s |
| CCC1(c2cccc(-c3ccnn3C)c2)C2=C(CC(C)(C)CC2=O)Nc2ncc(F)cc21 (single isomer, unassigned) [Compound 1025A] | 4.6 10^−6 cm/s |
| CCC1(c2ccccc2)C2=C(CC3(CCC3)CC2=O)Nc2ncc(F)cc21 (single isomer, unassigned) [Compound 1008B] | 21 10^−6 cm/s |
| CCC1(c2ccccc2)C2=C(CC(C)(C)CC2=O)Nc2ncc(F)cc21 (single isomer, unassigned) [Compound 114B] | 12 10^−6 cm/s |
| CCC1(c2cccc(-c3cn(C)nc3C)c2)C2=C(CC(C)(C)CC2=O)Nc2ncccc21 (single isomer, unassigned) [Compound 1023A] | 3.0 10^−6 cm/s |

====

TARGET_OF_ASSAY: GSK3a (GST-full length GSK3a) (Homo sapiens, UniProt P49840)
Construct: GST-full length GSK3a [SignalChem G08-10G]; purchased SignalChem G08-10G
Sequence (P49840 whole entry): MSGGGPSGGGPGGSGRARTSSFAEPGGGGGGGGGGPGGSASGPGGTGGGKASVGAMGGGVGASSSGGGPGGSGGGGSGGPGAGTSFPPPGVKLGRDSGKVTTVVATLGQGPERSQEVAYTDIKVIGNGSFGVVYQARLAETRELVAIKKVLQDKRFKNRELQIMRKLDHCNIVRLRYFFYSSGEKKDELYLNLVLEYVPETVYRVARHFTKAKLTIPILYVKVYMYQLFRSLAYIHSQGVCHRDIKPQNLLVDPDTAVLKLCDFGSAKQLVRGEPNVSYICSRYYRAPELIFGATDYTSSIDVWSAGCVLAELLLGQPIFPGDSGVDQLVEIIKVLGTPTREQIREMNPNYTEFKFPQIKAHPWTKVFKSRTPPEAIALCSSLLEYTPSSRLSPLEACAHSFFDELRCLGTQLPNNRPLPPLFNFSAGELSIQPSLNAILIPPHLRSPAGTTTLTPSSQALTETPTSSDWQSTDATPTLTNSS
TEST_SUMMARY: GSK3a TR-FRET kinase inhibition assay
Assay type: biochemical
CONDITION_NOTES: 1 mM ATP; Table 3; read-out: GSK3a TR-FRET 1 mM ATP Average IC50
Overview of recorded IC50 for various molecules

| MOLECULE | IC50 |
| --- | --- |
| CCC1(c2ccccc2)C2=C(CC(C)(C)CC2=O)Nc2ncccc21 (single isomer, unassigned) [Compound 102A] | 1 to 5 µM |
| CC(C)(C)Cc1cncc(F)c1-c1cccc(C2(C)C3=C(CC(C)(C)CC3=O)Nc3ncc(F)cc32)c1 (single isomer, unassigned) [Compound 173A] | 1 to 5 µM |
| CC(C)(C)Cc1ccnc2c1C(C)(c1ccccc1)C1=C(CC(C)(C)CC1=O)N2 (single isomer, unassigned) [Compound 130B] | 5 to 20 µM |
| CC1(C)CC(=O)C2=C(C1)Nc1ncc3c(c1C2(C)c1ccccc1)CCC3 (single isomer, unassigned) [Compound 118B] | 1 to 5 µM |
| Cc1nn(C)c(C)c1-c1cccc(C2(C)C3=C(CC(C)(C)CC3=O)Nc3ncc(C(F)(F)F)cc32)c1 (single isomer, unassigned) [Compound 170B] | 5 to 20 µM |
| CCC1(c2cccc(-c3ccnc(C)c3C)c2)C2=C(CC(C)(C)CC2=O)Nc2ncccc21 (single isomer, unassigned) [Compound 147A] | 0.1 to 1 µM |

====

Quick list: IC50 per entry.
TARGET_OF_ASSAY: GSK3a (GST-full length GSK3a) (Homo sapiens)
Construct: GST-full length GSK3a [SignalChem G08-10G]; purchased SignalChem G08-10G
TEST_SUMMARY: GSK3a TR-FRET kinase inhibition assay
Assay type: biochemical
CONDITION_NOTES: 1 mM ATP; Table 3; read-out: GSK3a TR-FRET 1 mM ATP Average IC50

| COMPOUND | IC50 |
| --- | --- |
| CC1(C)CC(=O)C2=C(C1)Nc1ncc(C(F)(F)F)cc1C2(C)c1cccc(S(C)(=O)=O)c1 (single isomer, unassigned) [Compound 157A] | 1 to 5 µM |
| COc1cncc(F)c1-c1cccc(C2(C)C3=C(CC(C)(C)CC3=O)Nc3ncc(F)cc32)c1 (single isomer, unassigned) [Compound 156A] | ≤ 0.1 µM |
| CCC1(c2ccccc2)C2=C(CC(C)(C)CC2=O)Nc2ncc(C(F)(F)F)cc21 (single isomer, unassigned) [Compound 133A] | 1 to 5 µM |
| CC1(C)CC(=O)C2=C(C1)Nc1ncc(C(C)(C)C)cc1C2(C)c1ccccc1 (single isomer, unassigned) [Compound 124A] | 5 to 20 µM |
| COc1cncc(F)c1-c1cccc(C2(C)C3=C(CC(C)(C)CC3=O)Nc3ncc(F)cc32)c1 (single isomer, unassigned) [Compound 156B] | 5 to 20 µM |
| CC1(C)CC(=O)C2=C(C1)Nc1ncccc1C2(C)c1ccccc1 (single isomer, unassigned) [Compound 101A] | 1 to 5 µM |
| CCC1(c2cccc(-c3c(F)cncc3OC)c2)C2=C(CC(C)(C)CC2=O)Nc2ncccc21 (single isomer, unassigned) [Compound 154B] | 5 to 20 µM |
